Sourced from the supplement of paper PMC9170038

Catalogue of apparent KD of MS2 coat protein values
System: MS2 coat protein
Assay info: apparent KD of MS2 coat protein; designed switch direction (-1 OFF switch, 1 ON switch): -1; higher = weaker reporter binding
Particulars: Eterna round: R95; input ligand: FMN 200 uM

Chain sequence	apparent KD of MS2 coat protein, nM
CUGAGGUAGCGGUCCUAUGACAUGAGGAUCACCCAUGUACCUUGCUUUGAGCAUUUUGCUCGUCUUAUGAUUCUCGG [Mat - Sensor v3 - turn-off var 1 - JL Mod - D39] (puzzle: Sensor v3, turn-off variant 1)	371
CAUACUCAAGUCAGGAUAUAGACUCGGAUACGGAUCUAGAAGGGACAUGAGGAUCACCCAUGUAGAGAGUAAAG [EX-4 Malc #26] (puzzle: Brourd's mod of Exclusion 4)	60.9
CCUUUGUCAGGAUAUCAGAACACGCUCCUAGGGAGCGCAAAUGAGAAGGGACAUGAGGAUCACCCAUGUAAAGA [Arisesat] (puzzle: Exclusion 4)	318
CCGAGGUAGCGGUCCUAUGACAUGAGGAUCACCCAUGUACCUCGCUACGAGCUUUUUGCUCGUCAUAUAAUUCUCGG [Mat - Sensor v3 - turn-off var 1 - JL Mod - D30] (puzzle: Sensor v3, turn-off variant 1)	45.4
UUUAAUUUUUUUUUUUUACAAGCUUUUUGCUCGUCUUAUACAUGAGGAUCACCCAUGUAGGUGAAAGGUAAAUUAUC [JMF 65] (puzzle: Sensor v3, turn-off variant 2)	32
